# melting point per record follows

compound	melting point
CCCc1nc2c(N)nc3ccccc3c2n1CC(C)(C)CC(C)=NOC	196 to 198 °C

I have this compound here, `CCCc1nc2c(N)nc3ccccc3c2n1CCCCN(O)C(=O)NC(C)C` , and I need its recorded melting point.
158 to 160 °C

I have this compound here, `CCCc1nc2c(N)nc3ccccc3c2n1CCCCN(OC)S(C)(=O)=O` , and I need its recorded melting point.
178 to 188 °C

I have this compound here, CCCc1nc2c(N)nc3cc(-c4ccccc4)ccc3c2n1CCCC(C)N(OC)C(=O)NC(C)C (stereo not drawn) , and I need its recorded melting point.
101 to 103 °C

I have this compound here, `CCCc1nc2c(N)nc(C)c(C)c2n1CCCCN(OC)C(=O)OC(C)(C)C` , and I need its recorded melting point.
127 to 128 °C

I have this compound here, `CON(CCCCn1c(C)nc2c(N)nc3ccccc3c21)C(N)=O` , and I need its recorded melting point.
158 to 160 °C

I have this compound here, `CCCc1nc2c(N)nc(C)c(C)c2n1CCCCN(OC)C(=O)c1ccccc1` , and I need its recorded melting point.
136 to 137 °C

I have this compound here, CCCc1nc2c(N)nc3ccccc3c2n1CCCC(C)N(OC)C(=O)Nc1ccccc1 (stereo not drawn) , and I need its recorded melting point.
140 to 142 °C

I have this compound here, `CCCc1nc2c(N)nc3c(c2n1CCCCN(O)C(=O)NC(C)C)CCCC3` , and I need its recorded melting point.
178 to 180 °C
